# Read-out: Cytochrome P450 7A1 (Homo sapiens)
# assay text: LTEA_HepaRG_CYP7A1: Life Technologies and Expression Analysis (LTEA) Assay for Cytochrome P450 7A1 (CYP7A1) using HepaRG (AID 2283496)
# settings: mRNA level, 48 h; actives raise or lower the signal
Calls of active or inactive are those of the source. Rule for the calls: active = hit-call score of the fitted dose curve at least 0.9, where 1 is the maximum; inactive = score below 0.9.
# valid calls are y for active, n for inactive; nothing else

// below: answered compounds
| compound | assigned label |
| --- | --- |
| S=c1[nH]c2ccccc2s1 | n |
| CC(=O)OC1CC(C)OC(C)O1 (stereo not drawn) | n |

Consider the additional compound presented here.
Entry `O=C(NS(=O)(=O)/C=C/c1cccs1)c1ccc(F)cc1Br` : call = ? y

###

# Read-out: Thrombomodulin, THBD (gene 7056)
# assay text: BSK_3C_Thrombomodulin: BioMAP Diversity Plus: 3C Assay for Thrombomodulin Biomarker Activity (AID 2283029)
# settings: primary human endothelial cells (HUVEC); actives raise or lower the signal
Active and inactive are the calls of the source. Rule for the calls: active = hit-call score of the fitted dose curve at least 0.9, where 1 is the maximum; inactive = score below 0.9.
// allowed return values: label 1 (active), label 0 (inactive)

| compound | assigned label |
| --- | --- |
| CCCCC(CC)COP(=O)(OCC(CC)CCCC)OCC(CC)CCCC (stereo not drawn) | label 0 |
| Cn1cnc2c1c(=O)[nH]c(=O)n2C | label 0 |
| CCCCCCCCCCCCCCOS(=O)(=O)O | label 1 |
| Cc1ccc(-c2cc(C(F)(F)F)nn2-c2ccc(S(N)(=O)=O)cc2)cc1 | label 1 |
| CO[C@@H]1COCC[C@@H]1N[C@@H]1CC[C@@](C(=O)N2CCc3ncc(C(F)(F)F)cc3C2)(C(C)C)C1 | label 0 |

Shifting focus to the compound that follows.
Short answer needed: outcome of this test for `COC(=O)CCC(=O)OC` ? label 0

###

# Read-out: Vascular cell adhesion molecule 1 (VCAM1), VCAM1 (gene 7412)
# assay text: BSK_CASM3C_VCAM1: BioMAP Diversity Plus: CASM3C Assay for Vascular cell adhesion molecule 1 (VCAM1) Biomarker Activity (AID 2283055);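 note: VCAM-1 protein level quantified by ELISA on the cells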
# settings: primary human coronary artery smooth muscle cells; actives raise or lower the signal
Calls of active or inactive are those of the source. Rule for the calls: active = hit-call score of the fitted dose curve at least 0.9, where 1 is the maximum; inactive = score below 0.9.
One label from this list, please: active, inactive

Study these solved cases before continuing.
| compound | assigned label |
| --- | --- |
| CC(C)COC(=O)CCCCC(=O)OCC(C)C | inactive |
| OCC(CO)n1cnc(-c2ccc(F)cc2)c1-c1ccnc(Oc2ccccc2)n1 | active |
| O=C1NC(=O)C(c2ccccc2)(c2ccccc2)N1 | inactive |

What classification did `NC(=Nc1ccccc1)Nc1ccccc1` end up with in this test? inactive

What call does the record list for `c1ccc2occc2c1` ? inactive

Just curious, what result did `Cn1cnc2c1c(=O)[nH]c(=O)n2C` get here? inactive

Any idea what this test logged for `CN(C)C(=O)NC1(c2ccccc2)CCN(CC[C@@]2(c3ccc(F)c(F)c3)CN(C(=O)c3ccccc3)CCO2)CC1` ? inactive

Which result was noted for this compound in the test: `CC(=O)[C@@]1(O)CC[C@H]2[C@@H]3CCC4=CC(=O)CC[C@]4(C)[C@H]3CC[C@@]21C` inactive

So what was the verdict on `O=C(N[C@@H](c1ccccc1)[C@@H]1CCCCN1)c1cccc(C(F)(F)F)c1Cl` in this test? inactive

Please share the test call associated with `CCc1cc(C2=C(C(=O)O)N(c3ccccc3C(F)(F)F)S(=O)(=O)c3ccccc32)cc2c1OCO2` . inactive

Status in this test for `Oc1ccccc1O` ? active

Which outcome did this test record for the compound Cc1c(C)c2c(c(C)c1O)CCC(C)(COc1ccc(CC3SC(=O)NC3=O)cc1)O2 (stereo not given) ? inactive

What call does the record list for `CC(C)(O)c1ccc(CNC(=O)c2cccnc2Oc2ccc(F)cc2)cc1` ? inactive

For this compound, state the assay outcome: `OCC(O)CO` inactive

Recorded test call requested for `O=C(NS(=O)(=O)/C=C/c1cccs1)c1ccc(F)cc1Br` inactive
